System: KB 3-1
Assay: Concentration that causes 50% of maximum vinblastine accumulation in KB/MDR cells in 1 h
Assay type: functional, cell-based
Conditions: Homo sapiens, KB 3-1, 1 h; read-out: EC50
Attribute measured: pEC50
Give bare numbers, as −log10 of the molar value.

Answer for every listed entry: what is its pEC50? The entries follow.
1. CC(=O)Oc1c(OC(C)=O)c(O)c2c(=O)cc(-c3ccccc3)oc2c1Br
2. O=c1cc(-c2ccccc2)oc2cc(O)c(O)c(O)c12 [BAICALEIN]

# output
1: 4.82; 2: 4.39

====

Please go through the items and note down their IC50.
Tested on: KB 3-1
Assay: Inhibitory activity against KB/MDR cell line after 72 hr of drug exposure
Format: functional, cell-based
Conditions: Homo sapiens
One number for each entry, in µM.

>>> reported_result("CCOc1c(O)cc2oc(-c3ccccc3)cc(=O)c2c1O")
17.5

Batch lookup, IC50 per entry.
1. O=c1cc(-c2ccccc2)oc2c(Br)c(O)c(O)c(O)c12
2. CC(=O)Oc1c(OC(C)=O)c(O)c2c(=O)cc(-c3ccccc3)oc2c1Br
3. CCCCCOc1cc2oc(-c3ccccc3)cc(=O)c2c(OC)c1OCCCCC
4. COc1ccc(CCN(C)CCCC(C#N)(c2ccc(OC)c(OC)c2)C(C)C)cc1OC (stereo unspecified)

# output
1: 18.7; 2: 16.2; 3: 82.6; 4: 51.7
